- System: Human immunodeficiency virus 1
- Assay protocol: Resistance factor, ratio of EC50 for HIV1 harboring reverse transcriptase Y188L mutant to EC50 for wild-type HIV-1 3B
- Format: functional
Parameter measured: Ratio EC50
Simply state the number, no unit and no words.

Summary for this compound, CC(=O)Cn1cc(CNC(=O)c2cnc(Nc3ccc(C#N)cc3)cc2Oc2c(C)cc(C)cc2C)nn1 : Ratio EC50 is 110.3

Summary for this compound, CC(C)Nc1cccnc1N1CCN(C(=O)c2cc3cc(NS(C)(=O)=O)ccc3[nH]2)CC1 : Ratio EC50 is 22.1

Summary for this compound, Cc1cc(C)c(Oc2cc(Nc3ccc(C#N)cc3)ncc2C(=O)NCc2cn(CC(=O)N3CCCC3)nn2)c(C)c1 : Ratio EC50 is 74

Summary for this compound, Cc1cc(C)c(Oc2cc(Nc3ccc(C#N)cc3)ncc2C(=O)NCc2cn(CC(N)=O)nn2)c(C)c1 : Ratio EC50 is 25.9

Summary for this compound, Cc1cc(C)c(Oc2cc(Nc3ccc(C#N)cc3)ncc2C(=O)NCc2cn(CCCO)nn2)c(C)c1 : Ratio EC50 is 85.7

Summary for this compound, Cc1cc(C)c(Oc2cc(Nc3ccc(C#N)cc3)ncc2C(=O)NCc2cn(CC(=O)N3CCOCC3)nn2)c(C)c1 : Ratio EC50 is 358

Summary for this compound, Cc1cc(C)c(Oc2cc(Nc3ccc(C#N)cc3)ncc2C(=O)NCc2cn(CCC#N)nn2)c(C)c1 : Ratio EC50 is 112

====

- Assay protocol: Selectivity index, ratio of CC50 for human MT4 cells to EC50 for HIV1 harboring reverse transcriptase K103N mutant
- Assay type: toxicity
- Experimental setup: read-out: Ratio CC50/EC50
Please use Y for selectivity ratio under 70 and N for everything else, ties included.

Strictly below 70 in selectivity ratio? Cc1cc(C)c(Oc2cc(Nc3ccc(C#N)cc3)ncc2C(=O)NCc2cn(CCC#N)nn2)c(C)c1
N

Strictly below 70 in selectivity ratio? Cc1cc(C)c(Oc2cc(Nc3ccc(C#N)cc3)ncc2C(=O)NCc2cn(CC(=O)N3CCCC3)nn2)c(C)c1
N

Strictly below 70 in selectivity ratio? Cc1cc(C)c(Oc2cc(Nc3ccc(C#N)cc3)ncc2C(=O)NCc2cn(CCCO)nn2)c(C)c1
Y

Strictly below 70 in selectivity ratio? Cc1cc(C)c(Oc2cc(Nc3ccc(C#N)cc3)ncc2C(=O)NCc2cn(CC(=O)N3CCOCC3)nn2)c(C)c1
N

Strictly below 70 in selectivity ratio? Cc1cc(C)c(Oc2cc(Nc3ccc(C#N)cc3)ncc2C(=O)NCc2cn(CC(N)=O)nn2)c(C)c1
Y

Strictly below 70 in selectivity ratio? CC(=O)Cn1cc(CNC(=O)c2cnc(Nc3ccc(C#N)cc3)cc2Oc2c(C)cc(C)cc2C)nn1
N

====

Consider the following molecules; for each one, report its selectivity ratio.
- Assay protocol: Selectivity index, ratio of CC50 for human MT4 cells to EC50 for wild-type HIV1 3B
- Format: toxicity
- Experimental setup: read-out: Ratio CC50/EC50
Simply state the number, no unit and no words.

Summary for this molecule, CCOC(=O)CCn1cc(CNC(=O)c2cnc(Nc3ccc(C#N)cc3)cc2Oc2c(C)cc(C)cc2C)nn1 : selectivity ratio is 25

Summary for this molecule, CCOC(=O)Cn1cc(CNC(=O)c2cnc(Nc3ccc(C#N)cc3)cc2Oc2c(C)cc(C)cc2C)nn1 : selectivity ratio is 15

Summary for this molecule, Cc1cc(C)c(Oc2cc(Nc3ccc(C#N)cc3)ncc2C(=O)NCc2cn(Cc3cccc(Cl)c3)nn2)c(C)c1 : selectivity ratio is 1800

Summary for this molecule, Cc1cccc(Cn2cc(CNC(=O)c3cnc(Nc4ccc(C#N)cc4)cc3Oc3c(C)cc(C)cc3C)nn2)c1 : selectivity ratio is 1070

Summary for this molecule, Cc1cc(C)c(Oc2cc(Nc3ccc(C#N)cc3)ncc2C(=O)NCc2cn(CC(=O)N3CCCC3)nn2)c(C)c1 : selectivity ratio is 2900

Summary for this molecule, Cc1ccc(Cn2cc(CNC(=O)c3cnc(Nc4ccc(C#N)cc4)cc3Oc3c(C)cc(C)cc3C)nn2)cc1 : selectivity ratio is 990

Summary for this molecule, CC(=O)Cn1cc(CNC(=O)c2cnc(Nc3ccc(C#N)cc3)cc2Oc2c(C)cc(C)cc2C)nn1 : selectivity ratio is 670

Summary for this molecule, Cc1cc(C)c(Oc2cc(Nc3ccc(C#N)cc3)ncc2C(=O)NCc2cn(CCCO)nn2)c(C)c1 : selectivity ratio is 678

Summary for this molecule, Cc1cc(C)c(Oc2cc(Nc3ccc(C#N)cc3)ncc2C(=O)NCc2cn(CC(N)=O)nn2)c(C)c1 : selectivity ratio is 139

Summary for this molecule, COC(=O)Cn1cc(CNC(=O)c2cnc(Nc3ccc(C#N)cc3)cc2Oc2c(C)cc(C)cc2C)nn1 : selectivity ratio is 8

====

- Tested on: Human immunodeficiency virus 1
- Assay protocol: Antiviral activity against HIV1 harboring reverse transcriptase F227L/V106A double mutant infected in human MT4 cells assessed as inhibition of viral replication after 5 days by MTT assay
- Format: functional, organism-based
- Experimental setup: Human immunodeficiency virus 1, MT4, 120 h
Parameter measured: EC50 (nM)
// units = nM; emit number, no label

Summary for this molecule, Cc1cc(C)c(Oc2cc(Nc3ccc(C#N)cc3)ncc2C(=O)NCc2cn(CCC#N)nn2)c(C)c1 : EC50 is 330

Summary for this molecule, CC(=O)Cn1cc(CNC(=O)c2cnc(Nc3ccc(C#N)cc3)cc2Oc2c(C)cc(C)cc2C)nn1 : EC50 is 590

Summary for this molecule, Cc1cc(C)c(Oc2cc(Nc3ccc(C#N)cc3)ncc2C(=O)NCc2cn(CC(=O)N3CCOCC3)nn2)c(C)c1 : EC50 is 610

Summary for this molecule, Cc1cc(C)c(Oc2cc(Nc3ccc(C#N)cc3)ncc2C(=O)NCc2cn(CCCO)nn2)c(C)c1 : EC50 is 780

Summary for this molecule, Cc1cc(C)c(Oc2cc(Nc3ccc(C#N)cc3)ncc2C(=O)NCc2cn(CC(=O)N3CCCC3)nn2)c(C)c1 : EC50 is 240

Summary for this molecule, Cc1cc(C)c(Oc2cc(Nc3ccc(C#N)cc3)ncc2C(=O)NCc2cn(CC(N)=O)nn2)c(C)c1 : EC50 is 1800

Summary for this molecule, Cc1cc(C#N)cc(C)c1Oc1nc(Nc2ccc(C#N)cc2)nc(N)c1Br : EC50 is 5

Summary for this molecule, CC(C)Nc1cccnc1N1CCN(C(=O)c2cc3cc(NS(C)(=O)=O)ccc3[nH]2)CC1 : EC50 is 2270

====

- System: Human immunodeficiency virus 1
- Assay protocol: Resistance factor, ratio of EC50 for HIV1 harboring reverse transcriptase F227L/V106A mutant to EC50 for wild-type HIV-1 3B
- Format: functional
Parameter measured: Ratio EC50
Simply state the number, no unit and no words.

Param item: CC(C)Nc1cccnc1N1CCN(C(=O)c2cc3cc(NS(C)(=O)=O)ccc3[nH]2)CC1 [DELAVIRDINE] ; param system: Human immunodeficiency virus 1; output Ratio EC50: 59.7

Param item: Cc1cc(C)c(Oc2cc(Nc3ccc(C#N)cc3)ncc2C(=O)NCc2cn(CC(=O)N3CCOCC3)nn2)c(C)c1 ; param system: Human immunodeficiency virus 1; output Ratio EC50: 30.5

Param item: Cc1cc(C)c(Oc2cc(Nc3ccc(C#N)cc3)ncc2C(=O)NCc2cn(CCC#N)nn2)c(C)c1 ; param system: Human immunodeficiency virus 1; output Ratio EC50: 16.5

Param item: CC(=O)Cn1cc(CNC(=O)c2cnc(Nc3ccc(C#N)cc3)cc2Oc2c(C)cc(C)cc2C)nn1 ; param system: Human immunodeficiency virus 1; output Ratio EC50: 20.3

Param item: Cc1cc(C)c(Oc2cc(Nc3ccc(C#N)cc3)ncc2C(=O)NCc2cn(CCCO)nn2)c(C)c1 ; param system: Human immunodeficiency virus 1; output Ratio EC50: 21.1

Param item: Cc1cc(C)c(Oc2cc(Nc3ccc(C#N)cc3)ncc2C(=O)NCc2cn(CC(=O)N3CCCC3)nn2)c(C)c1 ; param system: Human immunodeficiency virus 1; output Ratio EC50: 12

Param item: Cc1cc(C)c(Oc2cc(Nc3ccc(C#N)cc3)ncc2C(=O)NCc2cn(CC(N)=O)nn2)c(C)c1 ; param system: Human immunodeficiency virus 1; output Ratio EC50: 10.5

====

Consider the following compounds; for each one, report its selectivity ratio.
- Assay protocol: Selectivity index, ratio of CC50 for human MT4 cells to EC50 for HIV1 harboring reverse transcriptase L100I mutant
- Type: toxicity
- Experimental setup: read-out: Ratio CC50/EC50
Simply state the number, no unit and no words.

Summary for this compound, Cc1cc(C)c(Oc2cc(Nc3ccc(C#N)cc3)ncc2C(=O)NCc2cn(CCCO)nn2)c(C)c1 : selectivity ratio is 13

Summary for this compound, Cc1cc(C)c(Oc2cc(Nc3ccc(C#N)cc3)ncc2C(=O)NCc2cn(CC(N)=O)nn2)c(C)c1 : selectivity ratio is 7

Summary for this compound, CC(=O)Cn1cc(CNC(=O)c2cnc(Nc3ccc(C#N)cc3)cc2Oc2c(C)cc(C)cc2C)nn1 : selectivity ratio is 19

Summary for this compound, Cc1cc(C)c(Oc2cc(Nc3ccc(C#N)cc3)ncc2C(=O)NCc2cn(CC(=O)N3CCOCC3)nn2)c(C)c1 : selectivity ratio is 30

Summary for this compound, Cc1cc(C)c(Oc2cc(Nc3ccc(C#N)cc3)ncc2C(=O)NCc2cn(CCC#N)nn2)c(C)c1 : selectivity ratio is 38

Summary for this compound, Cc1cc(C)c(Oc2cc(Nc3ccc(C#N)cc3)ncc2C(=O)NCc2cn(CC(=O)N3CCCC3)nn2)c(C)c1 : selectivity ratio is 60
